Hi! I'm sharing some Ki results obtained with Cathepsin D (Homo sapiens).
Sequence (P07339 65-162 limits assumed): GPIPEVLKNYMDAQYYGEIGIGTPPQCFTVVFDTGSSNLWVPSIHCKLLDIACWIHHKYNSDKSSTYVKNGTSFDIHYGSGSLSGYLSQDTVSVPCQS
Sequence (P07339 169-412 limits assumed): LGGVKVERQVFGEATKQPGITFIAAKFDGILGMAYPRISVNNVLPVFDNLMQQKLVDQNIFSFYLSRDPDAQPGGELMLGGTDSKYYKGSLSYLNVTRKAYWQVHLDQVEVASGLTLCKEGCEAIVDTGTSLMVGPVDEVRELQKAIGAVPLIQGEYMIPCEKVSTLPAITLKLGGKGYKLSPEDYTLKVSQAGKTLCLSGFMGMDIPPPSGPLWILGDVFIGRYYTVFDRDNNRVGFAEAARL
Your answer should be a plain number; it is taken to be in nM.

Worked examples, 3 compounds total:
compound	unit	value_reported
CCCCNC(=O)CC(O)C(CC(C)C)NC(=O)C(NC(=O)Cc1cc(OC)ccc1C)C(C)C (configuration not stated)	nM	1600
CCCCNC(=O)CC(O)C(Cc1ccccc1)NC(=O)C(Cc1ccccc1)NC(=O)COc1ccc2ccccc2c1 (configuration not stated)	nM	1300
CCCCNC(=O)CC(O)C(CC(C)C)NC(=O)C(NC(=O)CN1CCC(C(N)=O)(c2ccccc2)CC1)C(C)CC (configuration not stated)	nM	5500

Which value of Ki has been reported for CCCCNC(=O)CC(O)C(CC(C)C)NC(=O)C(NC(=O)COc1ccc2ccccc2c1)c1ccccc1 (configuration not stated) in the records?
200

Which value of Ki has been reported for CCCCNC(=O)CC(O)C(CC(C)C)NC(=O)C(CCC(N)=O)NC(=O)COc1ccc2ccccc2c1 (configuration not stated) in the records?
200

Which value of Ki has been reported for CCCCNC(=O)CC(O)C(Cc1ccccc1)NC(=O)C(CC(C)C)NC(=O)COc1ccc2ccccc2c1 (configuration not stated) in the records?
920

Which value of Ki has been reported for CCCCNC(=O)C[C@H](O)[C@H](Cc1ccccc1)NC(=O)[C@@H](NC(=O)COc1ccc2ccccc2c1)C(C)CC (some centres not stated) in the records?
560

These measurements were taken from ChEMBL document CHEMBL1148458.
